# testDetails: Cell Viability - LYMP2-023 (AID 975);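 further: cells exposed to compound for 24 hours at 37 °C; nearly all actives have a fitted effect of over 55% in size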
# conditionNotes: LYMP2-023 lymphoblastoid cell viability; series mostly up to 92.2 µM
Results filed as inconclusive are left out. Calls of active or inactive are those of the source. The call rests on the fitted dose curve; in most records, active means well fitted cell-killing curve with a large enough effect; inconclusive means small, poorly fitted or top-dose-only effect; inactive means flat fitted curve, though single readings scatter.
One label from this list, please: yes = active, no = inactive

Examples from the recorded data:
C[C@@H]1CC[C@@]2(OC1)O[C@H]1[C@@H](O)[C@H]3[C@@H]4CC[C@H]5C[C@@H](O[C@@H]6O[C@H](CO)[C@H](O[C@@H]7O[C@H](CO)[C@@H](O)[C@H](O[C@@H]8OC[C@@H](O)[C@H](O)[C@H]8O)[C@H]7O[C@@H]7O[C@H](CO)[C@@H](O)[C@H](O[C@@H]8O[C@H](CO)[C@@H](O)[C@H](O)[C@H]8O)[C@H]7O)[C@H](O)[C@H]6O)[C@H](O)C[C@]5(C)[C@H]4CC[C@]3(C)[C@H]1[C@@H]2C = yes
c1ccc2cc3c(cc2c1)-c1cccc2cccc-3c12 = no
N#CSCSC#N = yes
C#CCO = no
COP(=O)(OC)O/C(=C\Cl)c1cc(Cl)c(Cl)cc1Cl = no

Ask | # fetch the recorded call for O=Nc1ccc(Nc2ccccc2)cc1 here
Reply | yes

Ask | Recorded call for OC(c1ccc(Cl)cc1)(c1ccc(Cl)cc1)C(Cl)(Cl)Cl ?
Reply | no

Ask | Check the results log: what was the call for CN(C)c1ccc(N=O)cc1 ?
Reply | yes

Ask | Test call, this compound: CC(C)CC(C)Nc1ccc(Nc2ccccc2)cc1 (stereo not given)
Reply | yes

Ask | Could you please tell me the result logged for N#CC(Cl)Cl in this assay?
Reply | yes

Ask | What call does the record list for O=[N+]([O-])C(Br)Br ?
Reply | yes

Ask | Hello, I am checking results. What call was entered for CC(=O)[O-].CC(=O)[O-].O.O.[Cd+2] ?
Reply | no

Ask | What is the recorded call for this compound in the test? FC(F)(F)c1ccc(Cl)cc1
Reply | no

Ask | For this compound, state the assay outcome: c1cc(OCC2CO2)cc(OCC2CO2)c1 (stereo not given)
Reply | yes

Ask | Query: recorded result category for Clc1ccc(C(c2ccc(Cl)cc2)C(Cl)Cl)cc1 in this test
Reply | no

* * *

# system: Glucocorticoid receptor (Homo sapiens) (UniProt P04150)
# Sequence (P04150 whole entry, looked up): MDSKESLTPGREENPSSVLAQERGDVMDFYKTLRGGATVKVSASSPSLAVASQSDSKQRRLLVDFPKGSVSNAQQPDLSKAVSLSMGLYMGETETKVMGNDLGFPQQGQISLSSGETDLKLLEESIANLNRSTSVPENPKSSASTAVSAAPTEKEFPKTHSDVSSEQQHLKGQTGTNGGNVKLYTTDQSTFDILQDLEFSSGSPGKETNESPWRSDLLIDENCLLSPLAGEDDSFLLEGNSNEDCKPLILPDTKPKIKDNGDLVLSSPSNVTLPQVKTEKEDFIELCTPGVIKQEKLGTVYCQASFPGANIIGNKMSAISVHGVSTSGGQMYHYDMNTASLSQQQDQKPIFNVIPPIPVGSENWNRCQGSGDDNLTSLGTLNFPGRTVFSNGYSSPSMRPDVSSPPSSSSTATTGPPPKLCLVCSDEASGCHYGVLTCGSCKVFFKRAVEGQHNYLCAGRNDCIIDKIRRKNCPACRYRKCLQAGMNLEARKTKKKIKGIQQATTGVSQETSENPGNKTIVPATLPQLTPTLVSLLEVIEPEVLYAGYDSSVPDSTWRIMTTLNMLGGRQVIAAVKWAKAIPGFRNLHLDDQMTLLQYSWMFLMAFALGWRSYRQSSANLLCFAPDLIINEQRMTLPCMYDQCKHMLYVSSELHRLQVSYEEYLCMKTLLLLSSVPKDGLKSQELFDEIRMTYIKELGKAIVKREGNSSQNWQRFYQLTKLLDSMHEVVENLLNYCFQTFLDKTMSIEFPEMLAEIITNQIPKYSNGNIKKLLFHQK
# testDetails: qHTS assay for small molecule antagonists of glucocorticoid receptor signaling (AID 588533);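 further: cells stimulated with 2 nM dexamethasone as agonist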
# conditionNotes: HeLa MMTV-bla, GRE beta-lactamase ratio, antagonist mode, 18 h; series mostly up to 76.8 µM
Records with an inconclusive call do not appear. The source made the active and inactive calls. The call rests on the fitted dose curve; in most records, active means well fitted inhibition curve with a large enough effect in the signal ratio, with a control signal flat (not every such curve was filed as active); inconclusive means small, poorly fitted or top-dose-only effect, or effect the other way, or a change in a side signal; inactive means flat fitted curve, though single readings scatter; the % refers to the signal ratio.
Answer with one of the outcomes True = active, False = inactive

C=C(C)C(=O)OCC(CC)CCCC (stereo not given) = False
CC(C)(C#N)N=NC(C)(C)C#N = False
CCCCOC(=O)[C@@H](C)Oc1ccc(Oc2ccc(C#N)cc2F)cc1 = False
CC/C(=N\OC/C=C/Cl)C1=C(O)CC(C2CCOCC2)CC1=O (stereo not given) = False
CCOP(=O)(OCC)SCSCC = False
CCNc1nc(Cl)nc(NC(C)(C)C#N)n1 = False
CC(C)=CC1[C@H](C(=O)OCc2cccc(Oc3ccccc3)c2)C1(C)C (stereo not given in full) = False
N#Cc1cc(Br)c(O)c(Br)c1 = False
CCC(C)(C)c1cc(-n2nc3ccccc3n2)c(O)c(C(C)(C)CC)c1 = False
O=[N+]([O-])c1cc(C(F)(F)F)cc([N+](=O)[O-])c1Cl = False

Ask | In this assay, the call recorded for c1ccc2c(c1)oc1ccccc12 was what?
Reply | False

Ask | Call for entry CCC(C)Nc1c([N+](=O)[O-])cc(C(C)(C)C)cc1[N+](=O)[O-] (stereo not given) :
Reply | False

Ask | For this compound, state the assay outcome: CCOP(=S)(NC(C)C)Oc1ccccc1C(=O)OC(C)C (stereo not given)
Reply | False

Ask | Which outcome was assigned to CON(C)C(=O)Nc1ccc(Cl)c(Cl)c1 in this test?
Reply | False

Ask | GET /call?item= COc1cc(OC)nc(NC(=O)NS(=O)(=O)c2cc(NC=O)ccc2C(=O)N(C)C)n1 returns the recorded outcome of this test.
Reply | False

Ask | Returns: the outcome recorded for C=CC1(C)OC(=O)N(c2cc(Cl)cc(Cl)c2)C1=O (stereo not given) in this assay.
Reply | False

Ask | Short answer needed: outcome of this test for CC(C)=CC1C(C(=O)OCc2coc(Cc3ccccc3)c2)C1(C)C (stereo not given) ?
Reply | False

Ask | Hi, sorry to bother you, what did the test record for COCc1cnc(C2=NC(C)(C(C)C)C(=O)N2)c(C(=O)O)c1 (stereo not given) ?
Reply | False

Ask | Could you please tell me the result logged for CCC[CH2][Sn]([CH2]CCC)([CH2]CCC)[CH2]CCC in this assay?
Reply | False
